Taken from patent US20240218022A1.

- target desc: mouse VISTA (mVISTA) (Mus musculus, UniProt Q9D659)
- Construct: expressed in transfected cells; host or cells: Human embryonic kidney 293T cells
- Sequence (Q9D659 33-308): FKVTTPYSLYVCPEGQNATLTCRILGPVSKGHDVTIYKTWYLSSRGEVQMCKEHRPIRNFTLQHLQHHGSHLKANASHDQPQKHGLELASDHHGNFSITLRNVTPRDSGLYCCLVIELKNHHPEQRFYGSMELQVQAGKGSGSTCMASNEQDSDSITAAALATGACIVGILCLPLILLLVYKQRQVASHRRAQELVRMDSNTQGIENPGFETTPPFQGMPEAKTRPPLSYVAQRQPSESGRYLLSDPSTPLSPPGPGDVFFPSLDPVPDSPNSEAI
- protocol: Cell-Based Binding High-Content Assay For mVISTA (HC CBA mVISTA)
- details: 293T cells expressing mouse VISTA; competition with biotinylated peptide (2 nM); read-out: HC CBA mVISTA IC50
- Description: Cell-Based Binding High-Content Assay For mVISTA Human embryonic kidney 293T cells (293T) expressing mouse VISTA (mVISTA) were used for the assessment of compounds competing with the binding of a biotinylated peptide. […] The plates were washed 3 times in dPBS, sealed, and read on a CellInsight NXT High Content Screening Platform IC903000 (Thermo Scientific). […]
pIC50: −log10 of the molar value. Positions of bridges follow the written chain, without caps; N, C: chain ends. Non-standard residues stand in square brackets, D forms with d. Residues, ends and D or L forms follow the SMILES beside them. Ahp(2) = CCCCC[C@H](N)C(=O)O; NHexGly = CCCCCCNCC(=O)O; Nle = CCCC[C@H](N)C(=O)O
assay endpoint: pIC50

CCCCCCN1CC(=O)N[C@@H](Cc2ccc(O)cc2)C(=O)N[C@@H](CCCC)C(=O)N[C@@H](CC(=O)O)C(=O)N[C@@H](CCCNC(=N)N)C(=O)N[C@@H](CC(C)C)C(=O)N[C@@H](CCCCC)C(=O)N2CCC[C@H]2C(=O)N[C@@H](C(C)C)C(=O)N[C@@H](Cc2c[nH]c3ccccc23)C(=O)N[C@H](C(=O)NCC(=O)O)CSCC(=O)N[C@@H](Cc2ccccc2)C(=O)N[C@@H](Cc2ccc(O)cc2)C(=O)N[C@@H](CC(=O)O)C1=O [Example 1067] ({CH2CO}-FYD[NHexGly]Y[Nle]DRL[Ahp(2)]PVWCG-OH; thioether N-14) : 7.54

###

pIC50 listing for selected compounds.
- target desc: mouse VISTA (mVISTA) (Mus musculus)
- Construct: expressed in transfected cells; host or cells: Human embryonic kidney 293T cells
- protocol: Cell-Based Binding High-Content Assay For mVISTA (HC CBA mVISTA)
- details: cell-based binding high-content assay, mVISTA; the 16th table; read-out: HC CBA mVISTA IC50
pIC50: −log10 of the molar value. Positions of bridges follow the written chain, without caps; N, C: chain ends. Non-standard residues stand in square brackets, D forms with d. Residues, ends and D or L forms follow the SMILES beside them. 2Nal = N[C@@H](Cc1ccc2ccccc2c1)C(=O)O; Ahp(2) = CCCCC[C@H](N)C(=O)O; NHexGly = CCCCCCNCC(=O)O
assay endpoint: pIC50

CCCCCCN1CC(=O)N[C@@H](Cc2ccc(O)cc2)C(=O)N[C@@H](CCCCC)C(=O)NCC(=O)N[C@@H](CCCNC(=N)N)C(=O)N[C@@H](CC(C)C)C(=O)N[C@@H](CCCCC)C(=O)N2CCC[C@H]2C(=O)N[C@@H](C(C)C)C(=O)N[C@@H](CO)C(=O)N[C@H](C(=O)NCC(N)=O)CSCC(=O)N[C@@H](Cc2ccc3ccccc3c2)C(=O)N[C@@H](Cc2ccc(O)cc2)C(=O)N[C@@H](CC(=O)O)C1=O [Ex 1273] ({CH2CO}-[2Nal]YD[NHexGly]Y[Ahp(2)]GRL[Ahp(2)]PVSCG-NH2; thioether N-14) : 7.84
CCCCCCN1CC(=O)N[C@@H](Cc2ccc(O)cc2)C(=O)N[C@@H](CC(C)C)C(=O)NCC(=O)N[C@@H](CCCNC(=N)N)C(=O)N[C@@H](Cc2ccc(O)cc2)C(=O)N[C@@H](CCCCC)C(=O)N2CCC[C@H]2C(=O)N[C@@H](C(C)C)C(=O)N[C@@H](C(C)C)C(=O)N[C@H](C(=O)NCC(=O)O)CSCC(=O)N[C@@H](Cc2ccc3ccccc3c2)C(=O)N[C@@H](Cc2ccc(O)cc2)C(=O)N[C@@H](CC(=O)O)C1=O [Ex 1299] ({CH2CO}-[2Nal]YD[NHexGly]YLGRY[Ahp(2)]PVVCG-OH; thioether N-14) : 7.48

###

- target desc: mouse VISTA (mVISTA) (Mus musculus)
- Construct: expressed in transfected cells; host or cells: Human embryonic kidney 293T cells
- protocol: Cell-Based Binding High-Content Assay For mVISTA (HC CBA mVISTA)
- details: the 19th table, scaffold drawing 22; read-out: HC CBA mVISTA IC50
pIC50: −log10 of the molar value. Positions of bridges follow the written chain, without caps; N, C: chain ends. Non-standard residues stand in square brackets, D forms with d. Residues, ends and D or L forms follow the SMILES beside them. Phe(3-Me) = Cc1cccc(C[C@H](N)C(=O)O)c1; Cit = NC(=O)NCCC[C@H](N)C(=O)O; Ahp(2) = CCCCC[C@H](N)C(=O)O; NHexGly = CCCCCCNCC(=O)O; Nle = CCCC[C@H](N)C(=O)O
pIC50 listing for selected compounds.
assay endpoint: pIC50

CCCCCCN1CC(=O)N[C@@H](Cc2ccc(O)cc2)C(=O)N[C@@H](CC(C)C)C(=O)N[C@@H](CC(N)=O)C(=O)N[C@@H](CCCNC(=N)N)C(=O)N[C@@H](CC(C)C)C(=O)N[C@@H](CCCCC)C(=O)N2CCC[C@H]2C(=O)N[C@@H](C(C)C)C(=O)N[C@@H](C(C)C)C(=O)N[C@H](C(=O)NCC(=O)O)CSCC(=O)N[C@@H](Cc2cccc(C)c2)C(=O)N[C@@H](Cc2c[nH]c3ccccc23)C(=O)N[C@@H](CC(=O)O)C1=O [compound 1422] ({CH2CO}-[Phe(3-Me)]WD[NHexGly]YLNRL[Ahp(2)]PVVCG-OH; thioether N-14) : 8.38
CCCCCCN1CC(=O)N[C@@H](Cc2ccc(O)cc2)C(=O)N[C@@H](CC(C)C)C(=O)N[C@@H](CC(N)=O)C(=O)N[C@@H](CCCNC(=N)N)C(=O)N[C@@H](CC(C)C)C(=O)N[C@@H](CCCCC)C(=O)N2CCC[C@H]2C(=O)N[C@@H](C(C)C)C(=O)N[C@@H](C(C)C)C(=O)N[C@H](C(=O)NCC(=O)O)CSCC(=O)N[C@@H](Cc2cccc(C)c2)C(=O)N[C@@H](Cc2ccc(O)cc2)C(=O)N[C@@H](CC(=O)O)C1=O [compound 1432] ({CH2CO}-[Phe(3-Me)]YD[NHexGly]YLNRL[Ahp(2)]PVVCG-OH; thioether N-14) : 8.52
CCCCCCN1CC(=O)N[C@@H](Cc2ccc(O)cc2)C(=O)N[C@@H](CCCC)C(=O)N[C@@H](CC(N)=O)C(=O)N[C@@H](CCCNC(N)=O)C(=O)N[C@@H](CC(C)C)C(=O)N[C@@H](CCCCC)C(=O)N2CCC[C@H]2C(=O)N[C@@H](C(C)C)C(=O)N[C@@H](CC(=O)O)C(=O)N[C@H](C(=O)NCC(=O)O)CSCC(=O)N[C@@H](Cc2cccc(C)c2)C(=O)N[C@@H](Cc2c[nH]c3ccccc23)C(=O)N[C@@H](CC(=O)O)C1=O [compound 1423] ({CH2CO}-[Phe(3-Me)]WD[NHexGly]Y[Nle]N[Cit]L[Ahp(2)]PVDCG-OH; thioether N-14) : 7.78
CCCCCCN1CC(=O)N[C@@H](Cc2ccc(O)cc2)C(=O)N[C@@H](CC(C)C)C(=O)N[C@@H](CC(N)=O)C(=O)N[C@@H](CCCNC(=N)N)C(=O)N[C@@H](CC(C)C)C(=O)N[C@@H](CCCCC)C(=O)N2CCC[C@H]2C(=O)N[C@@H](C(C)C)C(=O)N[C@@H](C(C)C)C(=O)N[C@H](C(=O)N[C@@H](CO)C(=O)O)CSCC(=O)N[C@@H](Cc2cccc(C)c2)C(=O)N[C@@H](Cc2c[nH]c3ccccc23)C(=O)N[C@@H](CC(=O)O)C1=O [compound 1426] ({CH2CO}-[Phe(3-Me)]WD[NHexGly]YLNRL[Ahp(2)]PVVCS-OH; thioether N-14) : 8.39

###

- target desc: mouse VISTA (mVISTA) (Mus musculus)
- Construct: expressed in transfected cells; host or cells: Human embryonic kidney 293T cells
- protocol: Cell-Based Binding High-Content Assay For mVISTA (HC CBA mVISTA)
- details: cell-based binding high-content assay, mVISTA; the 16th table; read-out: HC CBA mVISTA IC50
pIC50: −log10 of the molar value. Positions of bridges follow the written chain, without caps; N, C: chain ends. Non-standard residues stand in square brackets, D forms with d. Residues, ends and D or L forms follow the SMILES beside them. 2Nal = N[C@@H](Cc1ccc2ccccc2c1)C(=O)O; Tic = O=C(O)[C@@H]1Cc2ccccc2CN1; Cit = NC(=O)NCCC[C@H](N)C(=O)O; Ahp(2) = CCCCC[C@H](N)C(=O)O; NHexGly = CCCCCCNCC(=O)O; Nle = CCCC[C@H](N)C(=O)O; NBuGly = CCCCNCC(=O)O
pIC50 listing for selected compounds.
assay endpoint: pIC50

CCCCCCN1CC(=O)N[C@@H](Cc2ccc(O)cc2)C(=O)N[C@@H](CC(C)C)C(=O)NCC(=O)N[C@@H](CCCNC(=N)N)C(=O)N[C@@H](CC(C)C)C(=O)N[C@@H](CCCCC)C(=O)N2CCC[C@H]2C(=O)N[C@@H](C(C)C)C(=O)N[C@@H](CC(=O)O)C(=O)N[C@H](C(=O)NCC(=O)O)CSCC(=O)N[C@@H](Cc2ccc3ccccc3c2)C(=O)N[C@@H](Cc2ccc(O)cc2)C(=O)N[C@@H](CC(=O)O)C1=O [Ex 1282] ({CH2CO}-[2Nal]YD[NHexGly]YLGRL[Ahp(2)]PVDCG-OH; thioether N-14) : 7.93
CCCCCCN1CC(=O)N[C@@H](Cc2ccc(O)cc2)C(=O)N[C@@H](CC(C)C)C(=O)NCC(=O)N[C@@H](CCCNC(=N)N)C(=O)N2Cc3ccccc3C[C@H]2C(=O)N[C@@H](CCCCC)C(=O)N2CCC[C@H]2C(=O)N[C@@H](C(C)C)C(=O)N[C@@H](CO)C(=O)N[C@H](C(=O)NCC(=O)O)CSCC(=O)N[C@@H](Cc2ccc3ccccc3c2)C(=O)N[C@@H](Cc2ccc(O)cc2)C(=O)N[C@@H](CC(=O)O)C1=O [Ex 1290] ({CH2CO}-[2Nal]YD[NHexGly]YLGR[Tic][Ahp(2)]PVSCG-OH; thioether N-14) : 7.94
CCCCC[C@@H]1NC(=O)[C@H](CC(C)C)NC(=O)[C@H](CCCNC(=N)N)NC(=O)[C@H](CC(N)=O)NC(=O)[C@H](CCCC)NC(=O)[C@H](Cc2ccc(O)cc2)NC(=O)CN(CCCC)C(=O)[C@H](CC(=O)O)NC(=O)[C@H](Cc2ccc(O)cc2)NC(=O)[C@H](Cc2ccc3ccccc3c2)NC(=O)CSC[C@@H](C(=O)NCC(N)=O)NC(=O)[C@H](CC(=O)O)NC(=O)[C@H](C(C)C)NC(=O)[C@@H]2CCCN2C1=O [Ex 1271] ({CH2CO}-[2Nal]YD[NBuGly]Y[Nle]NRL[Ahp(2)]PVDCG-NH2; thioether N-14) : 8.10
CCCCCCN1CC(=O)N[C@@H](Cc2ccc(O)cc2)C(=O)N[C@@H](CCCC)C(=O)NCC(=O)N[C@@H](CCCNC(N)=O)C(=O)N[C@@H](CC(C)C)C(=O)N[C@@H](CCCCC)C(=O)N2CCC[C@H]2C(=O)N[C@@H](C(C)C)C(=O)N[C@@H](CC(=O)O)C(=O)N[C@H](C(=O)NCC(N)=O)CSCC(=O)N[C@@H](Cc2ccc3ccccc3c2)C(=O)N[C@@H](Cc2ccc(O)cc2)C(=O)N[C@@H](CC(=O)O)C1=O [Ex 1303] ({CH2CO}-[2Nal]YD[NHexGly]Y[Nle]G[Cit]L[Ahp(2)]PVDCG-NH2; thioether N-14) : 8.06
